Reference source for all entries: patent US20140309229A1

tested on: HCT-15; assay: MTS proliferation assay; assay type: cell-based, human; conditions: Homo sapiens, HCT-15, 72 h

RECORD_SMILES | MEASURED_TARGET | IC50, nM
C[C@@]1(C(=O)Nc2ccc(F)nc2)CCCN1c1nc(Nc2cc(C3CC3)n[nH]2)c2cccn2n1 | HCT-15 | 757

---

tested on: LS-180; assay: MTS proliferation assay; type: cell-based, human; conditions: Homo sapiens, LS180, 72 h
ASSAY_METRIC: IC50 (µM)

RECORD_SMILES | ASSAY_METRIC | MEASURED_NUMBER
C[C@@]1(C(=O)Nc2ccc(F)nc2)CCCN1c1nc(Nc2cc(C3CC3)n[nH]2)c2cccn2n1 | IC50 | 0.629
